Test system: NCI-H23 lung
Assay: NCI tumour cell line growth inhibition, 48 h; in the data active = GI50 below about 0.43 µM; inactive = the rest
Please state which outcome applies, choosing from active, inactive

compound: Cc1ccc(NC(=O)c2cccc(N(C)C)c2)cc1NC(=O)c1ccc(O)cc1
answer-label: inactive
--
compound: CC1=CC(=Nc2ccc(N(CCCl)CCCl)cc2)C=C(C)C1=O
answer-label: inactive
--
compound: COc1cc(C2=C(c3ccccc3)COC2=O)cc(OC)c1OC
answer-label: inactive
--
compound: O=c1/c(=C/c2ccco2)sc2nc3ccccc3n12
answer-label: inactive

Could you check what this test reported for CC1(C)OC2[C@@H](CNC(=O)NC(=O)NC(=O)CI)O[C@@H](n3cnc4c(NC(=O)Nc5ccccc5)ncnc43)[C@H]2O1 (some centres undefined) ?
inactive

Could you check what this test reported for "CN1CCN(C(=O)OCc2nc3c(N4CCOCC4)nc(Cl)nc3n2C)CC1" ?
inactive

Could you check what this test reported for C[C@@H]1OC(O)[C@@H](F)[C@H](O)[C@@H]1O (some centres undefined) ?
inactive

Could you check what this test reported for COc1cc(C2=NOC(c3cc(OC)c(OC)c(OC)c3)C2)ccc1OCCCCOc1cc2c(cc1OC)C(=O)N1CCC[C@H]1C=N2 (some centres undefined) ?
active

---

I'd be grateful if you could share measured TGI for these entries.
Test system: UO-31 renal
Assay: NCI tumour cell line growth inhibition, 48 h
Where a SMILES comes first, the peptide text is derived from it. The star is where a group is joined. Cbz = O=C(OCc1ccccc1)*; NHNH2 = NN*

molecule: O=C(c1ccccc1)c1nnc(C(=O)c2ccccc2)nn1
TGI: > 344 µM
--
molecule: COc1ccc(NC2=CC(=O)C(=O)c3ccccc32)nn1
TGI: 11.8 µM

For each listed entry, give its TGI.
1. CC(=O)OCC(OC(C)=O)C1C[C@H]2O[C@@H]3[C@H](C[C@H]2O1)O[C@@]1(C[C@@H]3C)C[C@H](C)[C@@H]2O[C@]3(C[C@@H]2O1)C[C@H]1O[C@H]2[C@H](C)[C@H]4OC(=O)CC5CC[C@H]6OC7[C@H]8O[C@]9(CC[C@H]%10CC(O)(CO)[C@H](CC[C@H]%11C[C@@H](C)C(O)(CO)C(C[C@@H]4O[C@H]2C[C@H]1O3)O%11)O%10)CC8O[C@@H]7[C@@H](O9)[C@H]6O5 (stereo partly specified)
2. O=C1CSC(c2cccs2)N1c1nc2cc3sc(N4C(=O)CSC4c4cccs4)nc3cc2s1 (stereo unspecified)
3. Cc1cn(C(C)OCCN2C(=O)c3ccccc3C2=O)c(=O)[nH]c1=O (stereo unspecified)

> 1 µM
> 50 µM
> 100 µM

For each listed entry, give its TGI.
1. CCOC(=O)C1=C(OC(OCC)C(CC)[Se]c2ccccc2)CCCC1 (stereo unspecified)
2. O=C(O)CNS(=O)(=O)c1ccc(NCc2ccccc2)cc1
3. O=C1CCC2(c3ccc(F)cc3)Nc3cc(Cl)ccc3N12 (stereo unspecified)
4. O=C1c2cc(Cl)ccc2S(=O)(=O)c2c(NCCCNCCO)nc3ccccc3c21
5. COC(=O)CC(NC(=O)OCc1ccccc1)C(=O)NC(CC(=O)OC)C(=O)NC(CC(=O)OC)C(=O)NC(CC(=O)OC)C(=O)NC(CC(=O)OC)C(=O)NC(CC(=O)OC)C(=O)NN (stereo unspecified) (Cbz-D(OMe)D(OMe)D(OMe)D(OMe)D(OMe)D(OMe)-NHNH2; configuration not given here)
6. CC1(C)OC2[C@@H](CNC(=O)NC(=O)NC(=O)CI)O[C@@H](n3cnc4c(NC(=O)Nc5ccccc5)ncnc43)[C@H]2O1 (stereo partly specified)
7. O=C1NC2OC(CO)C(O)C(O1)C2O (stereo unspecified)

> 100 µM
> 100 µM
> 100 µM
2.36 µM
> 100 µM
4.27 µM
> 100 µM

For each listed entry, give its TGI.
1. COc1ccc2cc(NC(=O)N/N=C\c3ccc(Cl)cc3)ccc2c1
2. COc1cc([N+](=O)[O-])cc2c3c(n(C)c12)[C@@]1(C)CCC2c4ccc(OCc5ccccc5)cc4CCC2C1C3 (stereo partly specified)
3. O=c1c2ccccc2nc(Nc2cccc(Cl)c2)n1/N=C/C=C/c1ccccc1
4. c1ccc(/C(=N/Nc2ccccn2)c2ncccn2)cc1

1. > 100 µM
2. > 100 µM
3. > 100 µM
4. 6.27 µM

---

Tested on: HCC-2998 colon
Experiment: NCI tumour cell line growth inhibition, 48 h
I'd be grateful if you could share measured log10(TGI) for these entries.
On a log10 scale: recorded TGI, unit µM.

These recorded examples may help you get a feel for the data.
compound: CC/C(=C(/c1ccc(O)cc1)c1ccc(OCCNC)cc1)c1ccccc1
target-or-system: HCC-2998 colon
readout-value: 0.54
--
compound: CC1(C)C=C(S(=O)(=O)c2ccccc2)Oc2ccccc2O1
target-or-system: HCC-2998 colon
readout-value: 1.84
--
compound: Brc1ccc2c(-c3csc(-c4c[nH]c5ccc(Br)cc45)n3)c[nH]c2c1
target-or-system: HCC-2998 colon
readout-value: 0.74
--
compound: NC(=O)C(=O)N/N=C(\CC1(O)C(=O)Nc2ccccc21)c1ccc2ccccc2c1 (stereo not given)
target-or-system: HCC-2998 colon
readout-value: 1.94

Which log10(TGI) value belongs to "CCC(=O)Oc1c2ccsc2c(OC(=O)CC)c2ccsc12" ?
0.54

---

System: OVCAR-5 ovarian
Test: NCI tumour cell line growth inhibition, 48 h
I'd be grateful if you could share measured TGI for these entries.

These recorded examples may help you get a feel for the data.
compound: COc1ccc(-c2cc(=O)c3c(OC)c(OC)c(OC)cc3o2)cc1
TGI: > 100 µM
--
compound: CS(=O)(=O)c1ccc([C@H]2O[C@@H](CO)C[C@]2(O)c2ccc(S(C)(=O)=O)cc2)cc1
TGI: > 100 µM

For each listed entry, give its TGI.
1. COC(=O)[C@]12CC[C@@H](C)[C@H](C)[C@@H]1C1=CC[C@@H]3[C@@]4(C)C/C(=N\O)[C@H](O)[C@@]5(C)COC(=C45)C[C@@]3(C)[C@]1(C)CC2
2. C/C(CC(=O)Nc1ccc(C)cc1C)=N/N=C(N)N
3. COC1/C=C\C=C(/C)C(=O)NC2=CC(=O)C(=O)C(=C2O)CC(C)CC(OC)C(O)C(C)/C=C(\C)C1OC(N)=O (centres undefined)
4. COCC1OC(N2C(=O)NC(=O)[C@@H]3C=C4CCCCC4=C[C@@H]32)C(OC)C1OC (some centres undefined)
5. CCOC(=O)C(CC#Cc1ccc(C#CCC(NC(C)=O)C(=O)OCC)cc1)NC(C)=O (centres undefined)
6. Cn1c(=O)c2[nH]c(SCc3ccccn3)nc2n(C)c1=S
7. O=c1[nH]ncc(Br)c1Br

1. 33.6 µM
2. > 100 µM
3. > 100 µM
4. > 100 µM
5. > 100 µM
6. > 100 µM
7. 3.08 µM

---

Test system: SF-268 CNS
Assay: NCI tumour cell line growth inhibition, 48 h; in the data active means GI50 below about 0.43 µM; inactive means the rest
Please state which outcome applies, choosing from TRUE for active, FALSE for inactive

Example entries begin here.
compound: O=C1c2cc(Cl)ccc2S(=O)(=O)c2c(NCCCNCCO)nc3ccccc3c21
answer-label: FALSE

compound: Cc1ccc(NC(=O)c2cccc(N(C)C)c2)cc1NC(=O)c1ccc(O)cc1
answer-label: FALSE

compound: CCc1ccc(/C=C\c2cc(OC)c(OC)c(OC)c2)cc1
answer-label: TRUE

Could you check what this test reported for "CCOc1cc2c(Cl)ncnc2c(OCC)c1OCC" ?
FALSE

---

Test system: SNB-19 CNS
Experiment: NCI tumour cell line growth inhibition, 48 h; in the data active = GI50 below about 0.43 µM; inactive = the rest
Please state which outcome applies, choosing from yes for active, no for inactive

molecule: CC[C@@]1(O)C(=O)OCc2c1cc1n(c2=O)Cc2c-1nc1cc3c(cc1c2CCl)OCO3
answer-label: yes

Could you check what this test reported for "Oc1c(CN2CCC(N3CCCCC3)CC2)cc(Cc2cc(CN3CCC(N4CCCCC4)CC3)c(O)c3ncccc23)c2cccnc12" ?
no

Could you check what this test reported for "O=c1/c(=C/c2ccco2)sc2nc3ccccc3n12" ?
no

---

I'd be grateful if you could share measured TGI for these entries.
Tested on: TK-10 renal
Assay: NCI tumour cell line growth inhibition, 48 h
Numbers only, in µM.

These recorded examples may help you get a feel for the data.
compound: O=C(/C(Br)=C/c1ccccc1)c1ccccc1
TGI [µM]: 14.6
//
compound: O=C1CCCCN1CCCCC#Cc1ccccc1C#Cc1ccc([N+](=O)[O-])cc1
TGI [µM]: 30.5

Let's switch to this compound now.
Which TGI value belongs to "O=c1c(-c2ccc(Cl)cc2)nnc2n(Cc3ccccc3)c3ccccc3n12" ?
61.8

---

I'd be grateful if you could share measured TGI for these entries.
Tested on: LOX IMVI melanoma
Assay: NCI tumour cell line growth inhibition, 48 h

compound: O=C1CCC(=O)N2CCCCN12
target-or-system: LOX IMVI melanoma
TGI: > 100 µM
--
compound: CCOn1c(C2(CC3CCN(C(=O)c4ccccc4)CC3)OCCO2)cc2ccccc21
target-or-system: LOX IMVI melanoma
TGI: 30.4 µM
--
compound: CCCCc1ccc(Nc2nc3c(ncn3COCCO)c(=O)[nH]2)cc1
target-or-system: LOX IMVI melanoma
TGI: > 100 µM

For each listed entry, give its TGI.
1. CNC(=O)N(CCC#N)[C@H]1CCCC[C@@H]1N(C(=O)NC)c1ccccc1
2. O=c1/c(=C/c2ccco2)sc2nc3ccccc3n12
3. COC12C=C(C)C(CC1)CC2C(=O)O (centres undefined)
4. O=C1O[C@@H](c2ccc3c(c2)OCO3)C2C(=O)O[C@@H](c3ccc4c(c3)OCO4)C12 (some centres undefined)

1. > 100 µM
2. > 100 µM
3. > 100 µM
4. > 100 µM
